meta.source: patent US20230263822A1

- PROCEDURE_DETAILS: Hematology assays in cynomolgus monkeys (Example 46)
- Assay type: in vivo
- EXPERIMENTAL_PARAMETERS: Day-5
Strand notation (5' to 3'): a small letter for the sugar, then the base; units joined by * are phosphorothioate-linked, units joined directly phosphodiester-linked; [ ] holds rarer units or linkages, { } end groups; capitals alone tell only the bases. e = 2'-O-(2-methoxyethyl) (MOE); [5mC] = 5-methylcytosine; d = 2'-deoxy (DNA)
I'd be grateful if you could share measured hemoglobin content for these entries.
# unit: g/dL | format: bare number

Q: Return hemoglobin content (reported value) for this substance: ISIS 449707: 3-8-3, 4-8-4, 2-10-2, 3-10-3 or 4-10-4 MOE microwalk gapmer (Table 46) (antisense e[5mC]*eA*e[5mC]*eA*dG*dT*dT*dT*d[5mC]*dT*dG*dG*e[5mC]*eA*eG*eG)
A: 12.8

Q: Return hemoglobin content (reported value) for this substance: ISIS 416850: MOE gapmer, nucleobases 1275 to 1318 of SEQ ID NO: 1 (Table 8) (antisense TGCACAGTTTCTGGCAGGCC; MOE gapmer, wing and gap sizes not given here)
A: 13.5

Q: Return hemoglobin content (reported value) for this substance: ISIS 449708: 3-8-3, 4-8-4, 2-10-2, 3-10-3 or 4-10-4 MOE microwalk gapmer (Table 46) (antisense eA*e[5mC]*eA*dG*dT*dT*dT*d[5mC]*dT*dG*dG*e[5mC]*eA*eG)
A: 13.2

Q: Return hemoglobin content (reported value) for this substance: ISIS 449709: 3-8-3, 4-8-4, 2-10-2, 3-10-3 or 4-10-4 MOE microwalk gapmer (Table 46) (antisense eG*e[5mC]*eA*e[5mC]*dA*dG*dT*dT*dT*d[5mC]*dT*dG*dG*d[5mC]*eA*eG*eG*e[5mC])
A: 12.8

Q: Return hemoglobin content (reported value) for this substance: ISIS 445522: 5-8-5 or 6-8-6 MOE microwalk gapmer (Table 44) (antisense eG*e[5mC]*eA*e[5mC]*eA*dG*dT*dT*dT*d[5mC]*dT*dG*dG*e[5mC]*eA*eG*eG*e[5mC])
A: 12.7

Q: Return hemoglobin content (reported value) for this substance: ISIS 445531: 5-8-5 or 6-8-6 MOE microwalk gapmer (Table 44) (antisense eG*eG*e[5mC]*eA*eT*dT*dG*dG*dT*dG*d[5mC]*dA*d[5mC]*eA*eG*eT*eT*eT)
A: 12.6

Q: Return hemoglobin content (reported value) for this substance: ISIS 416858: MOE gapmer, nucleobases 1275 to 1318 of SEQ ID NO: 1 (Table 8) (antisense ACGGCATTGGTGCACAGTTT; MOE gapmer, wing and gap sizes not given here)
A: 13.0

Q: Return hemoglobin content (reported value) for this substance: ISIS 449711: 3-8-3, 4-8-4, 2-10-2, 3-10-3 or 4-10-4 MOE microwalk gapmer (Table 46) (antisense eA*e[5mC]*dA*dG*dT*dT*dT*d[5mC]*dT*dG*dG*d[5mC]*eA*eG)
A: 12.7

Q: Return hemoglobin content (reported value) for this substance: ISIS 449710: 3-8-3, 4-8-4, 2-10-2, 3-10-3 or 4-10-4 MOE microwalk gapmer (Table 46) (antisense e[5mC]*eA*e[5mC]*dA*dG*dT*dT*dT*d[5mC]*dT*dG*dG*d[5mC]*eA*eG*eG)
A: 13.2
